Listing of entries alongside the reported inhibition at 10 µM.
# studyTarget: CHO/5-HT1A cells (Homo sapiens, UniProt P08908)
# Construct: expressed in transfected cells; host or cells: CHO/5-HT1A cells
# Sequence (P08908 whole entry): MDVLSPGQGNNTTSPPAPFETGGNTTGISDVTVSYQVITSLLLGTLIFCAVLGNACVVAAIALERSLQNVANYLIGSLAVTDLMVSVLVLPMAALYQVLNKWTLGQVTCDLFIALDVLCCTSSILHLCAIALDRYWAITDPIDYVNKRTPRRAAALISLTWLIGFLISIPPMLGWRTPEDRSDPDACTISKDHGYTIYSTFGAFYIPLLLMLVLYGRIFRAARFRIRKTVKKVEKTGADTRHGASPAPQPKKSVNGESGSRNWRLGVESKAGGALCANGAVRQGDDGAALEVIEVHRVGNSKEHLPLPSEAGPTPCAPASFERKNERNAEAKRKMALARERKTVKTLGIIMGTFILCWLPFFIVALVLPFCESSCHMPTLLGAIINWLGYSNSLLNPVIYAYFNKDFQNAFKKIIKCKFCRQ
# testProtocol: 5-HT1A Functional assay (cAMP)
# Type: cell-based
# assayConditions: 10 µM compound; % inhibition of the cAMP accumulation induced by 10 µM FSK; read-out: 5-HT1A cAMP % inhib.
observable: inhibition at 10 µM (%)

molecule	unitDescriptor	value
O=c1n(C/C=C\CN2CCN(c3cccc(Cl)c3)CC2)c2ccccc2n1CCN1CCOCC1 [compound 263]	%	63
CS(=O)(=O)NCCn1c(=O)n(C/C=C\CN2CC=C(c3ccccc3)CC2)c2ccccc21 [compound 504]	%	50
O=c1n(CCO)c2ccccc2n1CCN1CCN(c2cccc(C(F)(F)F)c2)CC1 [compound 187]	%	44
CS(=O)(=O)NCCn1c(=O)n(CC=CCN2CCN(c3cccc(Cl)c3)CC2)c2ccccc21 [compound 499]	%	74
COCCn1c(=O)n(C/C=C/CN2CCN(c3ccccn3)CC2)c2ccccc21 [compound 296]	%	82
CS(=O)(=O)NCCn1c(=O)n(C/C=C\CN2CCN(c3cccc(C(F)(F)F)c3)CC2)c2ccccc21 [compound 503]	%	87
CC(=O)NCCn1c(=O)n(CCN2CCN(c3cccc(C)c3C)CC2)c2ccccc21 [compound 446]	%	81
O=c1n(C/C=C/CN2CCc3c([nH]c4ccccc34)C2)c2ccccc2n1CCN1CCCCC1 [compound 333]	%	67
O=c1n(C/C=C/CN2CCN(c3ccccn3)CC2)c2ccccc2n1CCO [compound 381]	%	79
CCNC(=O)OCCn1c(=O)n(CCN2CCN(c3cccc(C(F)(F)F)c3)CC2)c2ccccc21 [compound 206]	%	80
COCCn1c(=O)n(CCN2CCN(c3cccc(C(F)(F)F)c3)CC2)c2ccccc21 [compound 168]	%	71
CCNC(=O)OCCn1c(=O)n(CCN2CCN(c3cccc(Cl)c3)CC2)c2ccccc21 [compound 202]	%	72
O=c1n(C/C=C\CN2CCN(c3cccc(C(F)(F)F)c3)CC2)c2ccccc2n1CCN1CCCCC1 [compound 318]	%	61
CCNC(=O)OCCn1c(=O)n(CCN2CCN(c3cccc(C)c3)CC2)c2ccccc21 [compound 217]	%	68
O=c1n(CCO)c2ccccc2n1CCCCN1CCN(c2cccc(C(F)(F)F)c2)CC1 [compound 64]	%	52
Cc1cccc(N2CCN(CC=CCn3c(=O)n(CCNS(C)(=O)=O)c4ccccc43)CC2)c1 [compound 514]	%	67
COCCn1c(=O)n(CCN2CCN(c3cccc(C)c3C)CC2)c2ccccc21 [compound 177]	%	76
O=c1n(C/C=C/CN2CCN(c3ccccn3)CC2)c2ccccc2n1CCN1CCOCC1 [compound 347]	%	65
O=c1n(C/C=C\CN2CCN(c3ccccc3)CC2)c2ccccc2n1CCN1CCCCC1 [compound 310]	%	63
COCCn1c(=O)n(CCCCN2CCN(c3cccc(C(F)(F)F)c3)CC2)c2ccccc21 [compound 9]	%	48
O=c1n(CCO)c2ccccc2n1CCN1CCN(c2cccc(Cl)c2)CC1 [compound 183]	%	66
COCCn1c(=O)n(CC=CCN2CCN(c3cccc(C(F)(F)F)c3)CC2)c2ccccc21 [compound 284]	%	82
Cc1cccc(N2CCN(C/C=C\Cn3c(=O)n(CCNS(C)(=O)=O)c4ccccc43)CC2)c1C [compound 512]	%	68
CCNC(=O)OCCn1c(=O)n(CCN2CCN(c3ccccc3Cl)CC2)c2ccccc21 [compound 219]	%	61
Cc1cccc(N2CCN(CCn3c(=O)n(CCN4CCCCC4)c4ccccc43)CC2)c1C [compound 158]	%	48
O=c1n(C/C=C/CN2CCN(c3cccc(C(F)(F)F)c3)CC2)c2ccccc2n1CCN1CCCCC1 [compound 335]	%	69
COCCn1c(=O)n(CCCCN2CCN(c3cccc(Cl)c3)CC2)c2ccccc21 [compound 5]	%	63
CC(=O)NCCn1c(=O)n(C/C=C\CN2CCN(c3ccccc3Cl)CC2)c2ccccc21 [compound 472]	%	67
CCNC(=O)OCCn1c(=O)n(C/C=C/CN2CCN(c3ccccn3)CC2)c2ccccc21 [compound 415]	%	82
O=c1n(C/C=C/CN2CCN(c3cccc(C(F)(F)F)c3)CC2)c2ccccc2n1CCN1CCOCC1 [compound 352]	%	79
CS(=O)(=O)NCCn1c(=O)n(C/C=C/CN2CCN(c3ccccn3)CC2)c2ccccc21 [compound 520]	%	70
COCCn1c(=O)n(C/C=C/CN2CCN(c3cccc(Cl)c3)CC2)c2ccccc21 [compound 297]	%	74

The origin of these recorded values is patent EP1322622B1.
